Parameter fractional inhibitory concentration index (FICI): see the listing below.
Tested on: Candida albicans
test_summary: Antifungal activity against fluconazole susceptible Candida albicans 0072gr in presence of fluconazole by CLSI protocol based broth microdilution method
Format: functional

Field request: fractional inhibitory concentration index (FICI) | item: c1ccc(-c2cc(-c3ccccc3)[nH]n2)cc1 0.63 - 2.5

Field request: fractional inhibitory concentration index (FICI) | item: c1ccc(C2=NOC(c3ccc(C4CC(c5ccccc5)=NO4)cc3)C2)cc1 (configuration not stated) 0.37 - 0.75

---

Test system: Candida albicans
test_summary: Antifungal activity against fluconazole susceptible Candida albicans 004gr by CLSI protocol based broth microdilution method
Format: functional
readout: MIC

Known MIC results, listed for orientation:
1. S=C1NC(c2ccccc2)=CC(c2ccc(C3C=C(c4ccccc4)NC(=S)N3)cc2)N1 (stereo not drawn) :: 0.125 to 1 mg/L
2. c1ccc(-c2cc(-c3ccc(-c4cc(-c5ccccc5)n[nH]4)cc3)[nH]n2)cc1 :: 2 to 16 mg/L
3. NC(=S)N1N=C(c2ccccc2)CC1c1ccccc1 (stereo not drawn) :: 125 to 500 mg/L
4. O=C1NC(c2ccccc2)=CC(c2ccccc2)N1 (stereo not drawn) :: 1 to 8 mg/L
5. c1ccc(C2=NOC(c3ccccc3)C2)cc1 (stereo not drawn) :: 4 to 31 mg/L
6. O=C(/C=C/c1ccccc1)c1ccccc1 :: 31 to 62 mg/L
7. O=C(/C=C/c1ccc(/C=C/C(=O)c2ccccc2)cc1)c1ccccc1 :: 2 to 16 mg/L
8. SC1=NC(c2ccccc2)=CC(c2ccccc2)N1 (stereo not drawn) :: 0.5 to 4 mg/L

Field request: MIC | item: OC(Cn1cncn1)(Cn1cncn1)c1ccc(F)cc1F 2 to 8 mg/L

Field request: MIC | item: NC(=S)N1N=C(c2ccccc2)CC1c1ccc(C2CC(c3ccccc3)=NN2C(N)=S)cc1 (stereo not drawn) 8 to 125 mg/L

Field request: MIC | item: O=C1NC(c2ccccc2)=CC(c2ccc(C3C=C(c4ccccc4)NC(=O)N3)cc2)N1 (stereo not drawn) 0.25 to 2 mg/L

Field request: MIC | item: c1ccc(-c2cc(-c3ccccc3)[nH]n2)cc1 16 to 62 mg/L

Field request: MIC | item: c1ccc(C2=NOC(c3ccc(C4CC(c5ccccc5)=NO4)cc3)C2)cc1 (stereo not drawn) 2 to 8 mg/L

---

Test system: Candida albicans
test_summary: Antifungal activity against fluconazole resistant Candida albicans 167-1 by CLSI protocol based broth microdilution method
Format: functional
readout: MIC

1) c1ccc(C2=NOC(c3ccccc3)C2)cc1 (stereo not drawn) :: 16 to 31 mg/L
2) c1ccc(C2=NOC(c3ccc(C4CC(c5ccccc5)=NO4)cc3)C2)cc1 (stereo not drawn) :: 8 to 16 mg/L
3) S=C1NC(c2ccccc2)=CC(c2ccc(C3C=C(c4ccccc4)NC(=S)N3)cc2)N1 (stereo not drawn) :: 2 mg/L
4) c1ccc(-c2cc(-c3ccc(-c4cc(-c5ccccc5)n[nH]4)cc3)[nH]n2)cc1 :: 31 to 125 mg/L
5) O=C(/C=C/c1ccccc1)c1ccccc1 :: 31 to 62 mg/L
6) O=C1NC(c2ccccc2)=CC(c2ccc(C3C=C(c4ccccc4)NC(=O)N3)cc2)N1 (stereo not drawn) :: 4 to 8 mg/L

Field request: MIC | item: O=C1NC(c2ccccc2)=CC(c2ccccc2)N1 (stereo not drawn) 8 to 16 mg/L

Field request: MIC | item: SC1=NC(c2ccccc2)=CC(c2ccccc2)N1 (stereo not drawn) 8 to 16 mg/L

Field request: MIC | item: NC(=S)N1N=C(c2ccccc2)CC1c1ccccc1 (stereo not drawn) 500 mg/L

Field request: MIC | item: OC(Cn1cncn1)(Cn1cncn1)c1ccc(F)cc1F 125 to 500 mg/L

Field request: MIC | item: c1ccc(-c2cc(-c3ccccc3)[nH]n2)cc1 62 to 125 mg/L

Field request: MIC | item: O=C(/C=C/c1ccc(/C=C/C(=O)c2ccccc2)cc1)c1ccccc1 16 to 31 mg/L

Field request: MIC | item: NC(=S)N1N=C(c2ccccc2)CC1c1ccc(C2CC(c3ccccc3)=NN2C(N)=S)cc1 (stereo not drawn) 125 to 500 mg/L
